test system: KM12 colon; test: NCI-60 one-dose screen, 48 h; settings: 10 µM unless noted
This is part of a sample that, as a whole, favours compounds with a hit. Of some 83,000 tested, about 20% had one in any assay. Activity calls are given as the source filed them. Rule for the calls: active = growth percent below 10; inactive = the rest.
Labels: active, inactive

smiles-text | system-under-test | label
O=c1[nH]c2ccccc2cc1CSc1nccc(-c2ccc3ccccc3c2)n1 | KM12 colon | inactive
CCCSc1nc(NCCc2c[nH]c3ccccc23)c(C#N)c(-c2ccc(OC)cc2)n1 | KM12 colon | inactive
O=S(=O)(Nc1cccc(-n2cnc3cc(-c4ccc(O)cc4)ccc32)c1)C1CC1 | KM12 colon | active
N#Cc1cnn(C(=O)c2ccccc2Br)c1NC(=O)c1ccc(Br)cc1Cl | KM12 colon | inactive
COc1ccc(C(=O)/C=C/c2cccc(Cl)c2Cl)cc1S(N)(=O)=O | KM12 colon | active

====

tested on: NCI/ADR-RES ovarian; assay: NCI-60 one-dose screen, 48 h; settings: 10 µM unless noted
This is part of a sample that, as a whole, favours compounds with a hit. Of some 83,000 tested, about 20% had one in any assay. Calls of active or inactive are those of the source. The calls were made as follows: active = growth percent below 10; inactive = the rest.
Labels: active, inactive

compound | label
O=C(N=Nc1c(O)[nH]c2ccc(Cl)cc12)c1ccc2nc(-c3ccccc3)[nH]c2c1 | inactive
COC(=O)/C=C/c1cccc2c1C(=O)NC(C)(c1cc3cc4ccccc4cc3oc1=O)N2 (centres undefined) | inactive
N#Cc1ccc(/C=N/NC(=O)c2[nH]c3ccc(Br)cc3c2-c2ccccc2)o1 | active
Cn1cc(-c2cc3nc(-c4c[nH]c5ccc(Cl)cc45)cc(N)n3n2)c2ccccc21 | active
CC1=C(C(=O)OCc2ccccc2)C(c2c(O)cc(O)cc2O)n2c(nc3ccccc32)N1 (centres undefined) | inactive
CCCSc1nc(NCCc2c[nH]c3ccccc23)c(C#N)c(-c2ccccc2)n1 | inactive
CN(C)CCCNC(=O)c1cc(NC(=O)c2cc(NC(=O)c3ccc(C#Cc4ccccc4)cc3)cn2C)cn1C | inactive
Cc1ccc(NCC(=O)Cn2cc(COc3ccc(C=Nc4cnc5ccccc5c4)cc3)nn2)cc1 | inactive
CC1(C)CC[C@]2(C(=O)Nc3ccccc3)CC[C@]3(C)C(=CCC4[C@@]5(C)C[C@@H](O)[C@H](O)[C@@](C)(CO)C5CC[C@]43C)C2C1 (some centres undefined) | inactive

====

Tested on: ACHN renal
Assay: NCI-60 one-dose screen, 48 h (100 = growth as untreated, 0 = no growth, -100 = all killed)
Conditions: 10 µM unless noted
Procedure: Growth inhibition of the ACHN human tumor cell line is measured as a screen for anti-cancer activity. Cells are grown in 96 well plates and exposed to the test compound for 48 hours. Compounds are tested at a single concentration, which is 10^-5 M for most compounds. The reported endpoint is percent growth (GI% or GIPRCNT), where numbers from 0 - 100% represent growth inhibition, and numbers from -100% - 0 represent cell death. For example, a value of 40 represents 60% growth inhibition. […]
The panel holds about 83,000 compounds, 20% with a hit somewhere; the sample as a whole holds those more often.
recorded-endpoint: growth (%)

molecule | system-under-test | recorded-endpoint | measurement-unit | reported-measurement
CC(=O)Nc1cccc(Nc2nc(NCc3ccccc3)c3ccccc3n2)c1 | ACHN renal | growth | % | -100
CC(=O)Nc1cccc(Nc2nccc(N[C@@H](C)c3ccccc3)n2)c1 | ACHN renal | growth | % | 12.7
COc1ccc2[nH]cc(-c3nnc(N)nc3-c3c[nH]c4ncc(Br)cc34)c2c1 | ACHN renal | growth | % | 59
Cc1ccc(Cc2cnc(NC(=O)c3ccc(/C=C4\SC(=S)N(C)C4=O)cc3)s2)cc1 | ACHN renal | growth | % | 31.1
O=C(COc1ccc(NC(=O)Nc2ccc(Cl)c(Cl)c2)cc1)N=Nc1c(O)[nH]c2ccc(Cl)cc12 | ACHN renal | growth | % | 20.9
CN(C)c1nc(NCCNS(=O)(=O)c2ccc(C(=O)/C=C/c3ccc(F)cc3)cc2)nc(Nc2ccc(F)cc2)n1 | ACHN renal | growth | % | -81.2
N#Cc1c(-c2ccccc2Cl)cc(-c2ccc3ccccc3c2)[nH]c1=O | ACHN renal | growth | % | 9.07
CCOC(=O)/C=C/c1cccc2c1C(=O)NC(C)(c1cc3cc(Br)ccc3oc1=O)N2 (centres undefined) | ACHN renal | growth | % | 28.1
COc1ccc(Cc2nn(CC(=O)N/N=C/c3ccc(F)cc3)c(=O)c3c(C)noc23)cc1 | ACHN renal | growth | % | -39.4
O=C(Cn1nc(-c2ccccc2)ccc1=O)N/N=C/c1ccc(N2CCOCC2)cc1 | ACHN renal | growth | % | 95.7
CC(C)c1ccc2c(N)c(C(=O)Nc3ccc(C(F)(F)F)cn3)sc2n1 | ACHN renal | growth | % | 49
COc1ccc2c(c1)c(/C=N/Nc1ccc3ccccc3n1)cn2C | ACHN renal | growth | % | -85.4
COc1ccc(C2(SCCNCc3cc(N(C)C)ccn3)c3ccccc3C=Cc3ccccc32)cc1 | ACHN renal | growth | % | 37.7
Cc1ccccc1[C@H]1C(C(=O)c2ccc(Cl)cc2)C2(N[C@@H]1c1ccccc1)C(=O)Nc1ccccc12 (some centres undefined) | ACHN renal | growth | % | -13.9
Cc1ccc(C(=O)NN2C(=O)/C(=C/C=C/c3ccc([N+](=O)[O-])o3)SC2=S)cc1 | ACHN renal | growth | % | -100
Cc1ccc(S(=O)(=O)c2nc(S(=O)(=O)c3ccc(C)cc3)c(N3CCC(O)CC3)s2)cc1 | ACHN renal | growth | % | 97.8
N#Cc1c(-c2cccc(Cl)c2Cl)cc(-c2ccc3ccccc3c2)[nH]c1=O | ACHN renal | growth | % | 40.8
Cc1ccc(S(=O)(=O)c2nc(S(=O)(=O)c3ccc(C)cc3)c(N3CCN(C)CC3)s2)cc1 | ACHN renal | growth | % | 71.6
CCCCCCCCc1ccc(C(=O)Nc2ccc(C)cc2C(=O)O)cc1C | ACHN renal | growth | % | 84.4

====

system: SW-620 colon; experiment: NCI-60 one-dose screen, 48 h; conditions: 10 µM unless noted
This is part of a sample that, as a whole, favours compounds with a hit. Of some 83,000 tested, about 20% had one in any assay. Calls of active or inactive are those of the source. Rule for the calls: active = growth percent below 10; inactive = the rest.
Labels: True for active, False for inactive

compound | system-under-test | label
CN(C)c1ccnc(NCCCSC(c2ccccc2)(c2ccccc2)c2ccccc2)c1 | SW-620 colon | True
Cc1ccc(-n2c(-c3cc4ccccc4nc3Cl)noc2=O)cc1 | SW-620 colon | False
O=C(CSc1nc2ccccc2c(=O)[nH]1)NCCN1CCCCC1 | SW-620 colon | False
Cc1ccc(NC(=O)[C@]23CCC(C)(C)CC2C2=CCC4[C@@]5(C)C[C@@H](O)[C@H](O)[C@@](C)(CO)C5CC[C@@]4(C)[C@]2(C)CC3)cc1 (stereo partly drawn) | SW-620 colon | False
O=C(/C=C/c1ccc(O)c(O)c1)NC1CCOC1O (stereo not drawn) | SW-620 colon | False
CN(C)CCn1c2ccccc2c2nc3ccc([N+](=O)[O-])cc3nc21 | SW-620 colon | False
C=C1CC[C@@H]2[C@]3(C)COC(c4ccco4)O[C@@H]3CC[C@@]2(C)[C@@H]1C/C=C1/C(=O)OCC1OC(C)=O (stereo partly drawn) | SW-620 colon | True
OCNc1ccc(-n2cnc3cc(-c4ccc(O)cc4)ccc32)cc1C(F)(F)F | SW-620 colon | False
C/C(=N\N=C1/C(=O)Nc2ccc(Cl)cc21)c1ccc2c(c1)Nc1ccccc1S2 | SW-620 colon | True
CCOC(=O)/C=C/c1cccc2c1C(=O)NC(C)(c1cc3cc(Br)ccc3oc1=O)N2 (stereo not drawn) | SW-620 colon | False
COc1ccc(C(=O)/C=C/c2ccc3ccccc3c2)cc1S(N)(=O)=O | SW-620 colon | True
COc1ccc2c(c1)C(=N/N=C(\C)c1ccc(OC)c(S(N)(=O)=O)c1)C(=O)N2 | SW-620 colon | False
COc1ccc2c(c1)c(-c1cc3nc(-c4cn(C)c5ncccc45)cc(N)n3n1)cn2C | SW-620 colon | True

====

tested on: BT-549 breast; assay: NCI-60 one-dose screen, 48 h; conditions: 10 µM unless noted
This is part of a sample that, as a whole, favours compounds with a hit. Of some 83,000 tested, about 20% had one in any assay. Activity calls are given as the source filed them. How the source made its calls: active means growth percent below 10; inactive means the rest.
Labels: active, inactive

molecule | label
Cc1cc2c(cc1Cl)C(=O)/C(=C/c1ccccc1)O2 | active
Cn1cc(-c2nnc(N)nc2-c2c[nH]c3ccccc23)c2cccnc21 | inactive
CCCCSc1nc(Nc2ccc(S(N)(=O)=O)cc2)c(C#N)c(-c2ccc(Cl)cc2)n1 | inactive
CC1=C(C(=O)OCc2ccccc2)C(c2ccc(-n3cncn3)cc2)n2c(nc3ccccc32)N1 (centres undefined) | inactive
COc1ccc(C2=NN(c3ccccc3)C(c3ccc(OC)c(OCc4ccccc4)c3)C2)cc1OC (centres undefined) | inactive
S=C(Nc1ccc(OCc2nc3ccccc3[nH]2)cc1)NC1CCCCC1 | inactive
COc1ccc2[nH]cc(-c3nnc(N)nc3-c3c[nH]c4ncc(Br)cc34)c2c1 | inactive
O=C(COc1ccc(NC(=O)Nc2ccc(Cl)c(Cl)c2)cc1)N=Nc1c(O)[nH]c2ccc([N+](=O)[O-])cc12 | inactive
CC(=O)/C=C/c1cccc2c1C(=O)NC(C)(c1cc3cc(Br)ccc3oc1=O)N2 (centres undefined) | active

The measurements presented in this section are drawn from PubChem BioAssay (NCI).
